Test system: A549/ATCC NSCLC
Experiment notes: NCI-60 one-dose screen, 48 h (100 = growth as untreated, 0 = no growth, -100 = all killed)
Condition details: 10 µM unless noted
Compounds without any hit were thinned out: in the full panel of roughly 83,000, 20% have a hit.

# Compound, growth / %
rows = [
    ("CCNC(=O)C1CCCN1C(=O)C(CCCN=C(N)N)NC(=O)C(CC(C)C)NC(=O)C(CC(C)C)NC(=O)C(Cc1ccc(O)cc1)NC(=O)C(CO)NC(=O)C(Cc1c[nH]c2ccccc12)NC(=O)C(Cc1cnc[nH]1)NC(=O)C1CCC(=O)N1 (stereo not given)", 81.6),
    ("COc1ccc(S(=O)(=O)N2CCN(c3cc4c(cc3F)c(=O)c(C(=O)O)cn4C3CC3)CC2)c(OC)c1", 93.6),
    ("O=S(=O)(O)CCl", 103),
    ("Nc1c(C(=O)Nc2cccc(C(F)(F)F)c2)sc2nc3c(cc12)CCCCCC3", -45.2),
    ("CCC(C)NCC(=O)O (stereo not given)", 105),
    ("COc1cccc(/C=C/c2c(C(=O)O)cccc2[N+](=O)[O-])c1OC", 103),
    ("C/C(=C\\c1csc(C)n1)[C@@H]1C[C@@H]2O[C@]2(C)CCC[C@H](C)[C@H](O)[C@@H](C)C(=O)C(C)(C)[C@@H](O)CC(=O)N1", -79.8),
    ("COc1cc(Cn2c(SCC(=O)Nc3cc(OC)c(OC)c(OC)c3)nc3ccccc3c2=O)cc(OC)c1OC", 62.9),
    ("CCN1C(=O)N[C@H]2[C@@H]3NC(=O)c4ccc(Cl)n4[C@@H]3C[C@]21O", 9.08),
    ("O=S(=O)(NCCNc1cc(-c2cn(-c3ccccc3)nc2-c2ccccc2)ccn1)c1ccc(F)cc1", 77.6),
    ("COc1cc2c3c(c(=O)oc2cc1OS(=O)(=O)c1ccc(C(F)(F)F)cc1)CCCCC3", 75.4),
    ("Clc1cccc(Cl)c1Cn1c(-c2cncs2)nc2ccccc21", 73.1),
    ("CC(=O)OC[Si](C)(C)c1ccccc1", 95.8),
    ("O=C(O)c1ccc(-n2cc(CNc3ccc(C(F)(F)F)cc3)c(-c3ccccc3)n2)cc1", 72.5),
    ("CC(=O)N1Cc2ccccc2C(C)Cc2cc(Cl)ccc21 (stereo not given)", 96.5),
]

---

System: MOLT-4 leukemia
Experiment notes: NCI-60 one-dose screen, 48 h (100 = growth as untreated, 0 = no growth, -100 = all killed)
Condition details: 10 µM unless noted
Compounds without any hit were thinned out: in the full panel of roughly 83,000, 20% have a hit.

# Compound, growth / %
rows = [
    ("Cc1nc(Nc2cccnc2)sc1C(=O)/C=C/c1ccc(Cl)cc1", 53),
    ("O=C1C2=C(C(=O)c3c(O)ccc(O)c31)N(c1cccnc1)Cc1ccccc1O2", -18.5),
    ("C=CCN=C1NC(=O)/C(=C/c2cc(C(C)(C)C)c(O)c(C(C)(C)C)c2)S1", 47.4),
    ("CC/C=C\\C/C=C\\C[C@H]1C/C=C2/C(=O)C=C[C@H]2C/C=C\\CCC(=O)O1", -3.06),
    ("O=P([O-])(O)OP(=O)([O-])O.[NH-][C@H]1CCCC[C@@H]1[NH-].[OH-].[OH-].[Pt+4]", 87.8),
    ("CNC(C)=O", 95),
    ("O=C(c1ccccc1)C(Cl)C(Cl)c1ccccc1 (stereo not drawn)", 25.9),
    ("COc1ccc(C2=NN(c3ccc(S(N)(=O)=O)cc3)C(c3cn(-c4ccccc4)nc3-c3ccc(Cl)cc3)C2)cc1 (stereo not drawn)", 69.2),
]

---

System: SW-620 colon
Experiment notes: NCI-60 one-dose screen, 48 h
Condition details: 10 µM unless noted
About 83,000 compounds went through this panel and 20% of them were active in at least one assay; those are over-represented in the sample as a whole. Active and inactive are the calls of the source. Rule for the calls: active = growth percent below 10; inactive = the rest.
Classes used: yes (active), no (inactive)

# Smiles text, Cat
data = [
    ("COc1cc(CNC(=O)CCSc2nc3ccccc3c(=O)n2Cc2cc(OC)c(OC)c(OC)c2)cc(OC)c1OC", "no"),
    ("C=C1C(=O)O[C@H]2[C@H]1CC/C(COC(=O)NCCc1ccc(Br)cc1)=C\\CC[C@@]1(C)O[C@@H]21", "yes"),
    ("COc1cc(C(=O)/C=C/c2cc(C(=O)c3cc(OC)c(OC)c(OC)c3)ccc2OC)ccc1N", "yes"),
    ("CCN(CC)CCC(=O)c1cccc2ccccc12", "no"),
    ("COc1ccc(/C=N/NC(=O)Cn2c(Cc3cccc4ccccc34)nc3ccccc32)cc1", "no"),
]

---

Tested on: RXF 393 renal
Experiment notes: NCI-60 one-dose screen, 48 h (100 = growth as untreated, 0 = no growth, -100 = all killed)
Condition details: 10 µM unless noted
This is part of a sample that, as a whole, favours compounds with a hit. Of some 83,000 tested, about 20% had one in any assay.

# Compound, growth (%)
data = [
    ("Clc1nc2ccccc2nc1CI", 94.9),
    ("Cc1ccc(C(=O)c2sc3nc4c(cc3c2N)CCCC4)c(C)c1", -16),
    ("CC(=O)Nc1ccc(S(=O)(=O)N2C(=O)CCC2C(=O)Nc2ccccc2)cc1 (stereo not drawn)", 57.7),
    ("CC(C)[C@H](CO)Nc1nc(Nc2ccc(C(=O)NCCNS(=O)(=O)c3cccc4c(N(C)C)cccc34)c(Cl)c2)c2ncn(C(C)C)c2n1", -57.1),
    ("O=C1CCC/C=C\\C[C@H]2C=CC(=O)/C2=C/C[C@H](C/C=C\\CC(F)(F)F)O1", -85.4),
    ("Cc1cc2c(C(C)C)c(O)c(O)c(C=NCCCCCCC(=O)O)c2c(O)c1-c1c(C)cc2c(C(C)C)c(O)c(O)c(C=NCCCCCCC(=O)O)c2c1O", 34.2),
    ("Nc1nn2cc(-c3ccc(Cl)s3)nc2c2ccccc12", 133),
    ("COc1cc(C2CC(c3c(C)[n+]([O-])c4ccccc4[n+]3[O-])=NN2)cc(OC)c1OC (stereo not drawn)", -20.2),
]

---

Tested on: T-47D breast
Experiment notes: NCI-60 one-dose screen, 48 h (100 = growth as untreated, 0 = no growth, -100 = all killed)
Condition details: 10 µM unless noted
Compounds without any hit were thinned out: in the full panel of roughly 83,000, 20% have a hit.
Returns one of Y or N; Y when growth is >= 70%.

# Compound, Cat
data = [
    ("COc1ccc(/C(=N/O)c2cc(OC)c(OC)c(OC)c2)c(OC)c1N", "N"),
    ("CCN(CC)P(=O)(N(CC)CC)N(CCCSC/C=C(\\C)CC/C=C(\\C)CCC=C(C)C)CCCN1CCN(C)CC1", "Y"),
    ("COc1ccc(/C=C/C(=O)/C=C/c2cc3ccc(Cl)cc3[nH]c2=O)cc1", "N"),
    ("Cc1ccc(C2=NN(c3ccc(S(=O)(=O)NC(=O)NCc4ccccc4)cc3)C(c3ccc(N(C)C)cc3)C2)c(C)c1 (stereo not drawn)", "N"),
    ("O=c1oc2cc(OS(=O)(=O)c3ccc(F)cc3)ccc2c2c1CCCCC2", "N"),
    ("CCn1c(=O)c2c(=O)c3c4c(oc3oc2c2ccccc21)C(=O)c1ccccc1C4=O", "N"),
    ("Nc1nc(Cl)c2c(ncn2Cc2ccc(CCl)cc2)n1", "Y"),
    ("COc1ccc(C(=O)c2cc(OC)c(OC)c(OC)c2)cc1/C=C/C(=O)c1ccc(OC)c(OC)c1", "N"),
    ("COc1ccc(C(=O)/C=C/c2ccc(/C=C/c3cc(OC)c(OC)c(OC)c3)cc2)cc1", "N"),
    ("COC(=O)[C@H]1[C@H](OC)[C@@H](OC(=O)/C=C/c2ccncc2)CC2CN3CCc4c([nH]c5cc(OC)ccc45)[C@@H]3C[C@@H]21 (stereo partly drawn)", "N"),
    ("COc1ccc(C2=NN(c3ccc(S(N)(=O)=O)cc3)C(c3cn(-c4ccccc4)nc3-c3ccc(Cl)cc3)C2)cc1 (stereo not drawn)", "N"),
    ("O=[N+]([O-])c1c(S(=O)(=O)O)cc2cc(S(=O)(=O)O)ccc2c1[N+](=O)[O-]", "Y"),
]

---

Test system: HCT-116 colon
Experiment notes: NCI-60 one-dose screen, 48 h (100 = growth as untreated, 0 = no growth, -100 = all killed)
Condition details: 10 µM unless noted
About 83,000 compounds went through this panel and 20% of them were active in at least one assay; those are over-represented in the sample as a whole. Active and inactive are the calls of the source. How the source made its calls: active means growth percent below 10; inactive means the rest.
Each item that follows carries a reported growth.
Test readout: growth

# Compound, Reported value
data = [
    ("Nc1c(C(=O)Nc2cccc(C(F)(F)F)c2)sc2nc3c(cc12)CCCCCC3", "-18.1% (active)"),
    ("COc1ccc(OC)c(NC(=O)c2cc(S(=O)(=O)N3CCc4ccccc43)ccc2OC)c1", "72.2% (inactive)"),
    ("CC[C@H](C)[C@@H]1NC(=O)[C@H]([C@@H](C)O)NC(=O)C(Cc2ccccc2)NC(=O)[C@@H]2CCCN2C(=O)C(C(C)C)NC(=O)C(Cc2ccccc2)NC(=O)CNC(=O)[C@@H]2CCCN2C1=O (stereo partly specified)", "18.8% (inactive)"),
    ("CC1CCN(C(=O)CSc2nc3sc4c(c3c(=O)[nH]2)CCCC4)CC1", "112% (inactive)"),
    ("COc1cc(Cn2c(SCC(=O)Nc3ccc(Cl)cc3)nc3ccccc3c2=O)cc(OC)c1OC", "35.6% (inactive)"),
    ("COc1ccc(S(=O)(=O)NCCNc2nccc(-c3c(-c4ccccc4)nc4sccn34)n2)cc1", "9.81% (active)"),
    ("COc1cccc(NC(=O)c2sc3nc4c(cc3c2N)CCCC4)c1", "20.7% (inactive)"),
    ("CCN(Cc1ccc(CN(CC)C(=O)C(Cl)(Cl)Cl)cc1)C(=O)C(Cl)(Cl)Cl", "56.4% (inactive)"),
    ("O=C1Nc2cc(Cl)ccc2/C1=C/c1ccc(N2CCOCC2)s1", "96.6% (inactive)"),
    ("CC1=CNNc2c3ncnc-3ncn21", "102% (inactive)"),
    ("Nc1c(C(=O)Nc2cccc(C(F)(F)F)c2)sc2nc3c(cc12)C(O)CCC3 (stereo unspecified)", "35.2% (inactive)"),
]

Values were extracted from PubChem BioAssay (NCI).
